- Experimental system: human GCG receptor (human, UniProt P47871 26-477)
- Sequence (P47871 26-477): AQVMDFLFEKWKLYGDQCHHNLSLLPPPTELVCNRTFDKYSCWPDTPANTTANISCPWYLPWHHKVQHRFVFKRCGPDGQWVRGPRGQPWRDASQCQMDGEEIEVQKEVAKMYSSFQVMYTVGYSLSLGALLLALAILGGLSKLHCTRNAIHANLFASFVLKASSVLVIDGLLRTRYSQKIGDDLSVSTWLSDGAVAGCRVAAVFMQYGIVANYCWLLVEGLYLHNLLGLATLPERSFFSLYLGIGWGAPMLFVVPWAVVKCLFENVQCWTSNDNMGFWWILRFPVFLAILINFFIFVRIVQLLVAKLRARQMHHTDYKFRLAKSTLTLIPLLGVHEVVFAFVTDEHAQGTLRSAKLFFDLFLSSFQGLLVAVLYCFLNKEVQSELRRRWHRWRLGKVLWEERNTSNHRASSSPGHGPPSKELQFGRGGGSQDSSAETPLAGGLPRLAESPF
- Experiment notes: cell-based or functional assay
Positions of bridges follow the written chain, without caps; N, C: chain ends. Non-standard residues stand in square brackets, D forms with d. No end group written: not given here. *: point of attachment. Acetyl(2-(4-imidazolyl)) = O=C(Cc1c[nH]cn1)*; Aib = CC(C)(N)C(=O)O
Just a reminder that ties go to criterion not met: only In vitro Activity Compared to Native Peptide (%) vs. Glucagon strictly below 6% counts as criterion met.

[in] Determine whether this binder shows In vitro Activity Compared to Native Peptide (%) vs. Glucagon lower than 6% (ties excluded): H[Aib]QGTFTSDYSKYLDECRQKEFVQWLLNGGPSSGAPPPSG (bridge 16-20) [triple agonist of SEQ ID NO: 37]
[out] criterion not met

[in] Determine whether this binder shows In vitro Activity Compared to Native Peptide (%) vs. Glucagon lower than 6% (ties excluded): [Acetyl(2-(4-imidazolyl))][Aib]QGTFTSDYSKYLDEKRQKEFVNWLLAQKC (bridge 16-20) [triple agonist of SEQ ID NO: 93]
[out] criterion met

[in] Determine whether this binder shows In vitro Activity Compared to Native Peptide (%) vs. Glucagon lower than 6% (ties excluded): Y[Aib]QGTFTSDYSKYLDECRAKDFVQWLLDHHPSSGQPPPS (bridge 16-20) [triple agonist of SEQ ID NO: 66]
[out] criterion not met

[in] Determine whether this binder shows In vitro Activity Compared to Native Peptide (%) vs. Glucagon lower than 6% (ties excluded): H[Aib]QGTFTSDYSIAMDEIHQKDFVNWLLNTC (bridge 16-20) [triple agonist of SEQ ID NO: 57]
[out] criterion met

[in] Determine whether this binder shows In vitro Activity Compared to Native Peptide (%) vs. Glucagon lower than 6% (ties excluded): [Acetyl(2-(4-imidazolyl))][Aib]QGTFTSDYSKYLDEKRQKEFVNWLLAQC (bridge 16-20) [triple agonist of SEQ ID NO: 86]
[out] criterion met

Next:
[in] Determine whether this binder shows In vitro Activity Compared to Native Peptide (%) vs. Glucagon lower than 6% (ties excluded): [Acetyl(2-(4-imidazolyl))][Aib]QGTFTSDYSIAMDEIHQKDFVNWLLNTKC (bridge 16-20) [triple agonist of SEQ ID NO: 94]
[out] criterion met

[in] Determine whether this binder shows In vitro Activity Compared to Native Peptide (%) vs. Glucagon lower than 6% (ties excluded): Y[Aib]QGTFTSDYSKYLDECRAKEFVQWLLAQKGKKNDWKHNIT (bridge 16-20) [triple agonist of SEQ ID NO: 23]
[out] criterion not met

[in] Determine whether this binder shows In vitro Activity Compared to Native Peptide (%) vs. Glucagon lower than 6% (ties excluded): H[Aib]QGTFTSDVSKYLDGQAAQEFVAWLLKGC [triple agonist of SEQ ID NO: 8]
[out] criterion met

[in] Determine whether this binder shows In vitro Activity Compared to Native Peptide (%) vs. Glucagon lower than 6% (ties excluded): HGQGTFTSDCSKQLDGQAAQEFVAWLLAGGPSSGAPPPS [triple agonist of SEQ ID NO: 44]
[out] criterion met

[in] Determine whether this binder shows In vitro Activity Compared to Native Peptide (%) vs. Glucagon lower than 6% (ties excluded): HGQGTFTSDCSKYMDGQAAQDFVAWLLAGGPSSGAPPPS [triple agonist of SEQ ID NO: 45]
[out] criterion met

[in] Determine whether this binder shows In vitro Activity Compared to Native Peptide (%) vs. Glucagon lower than 6% (ties excluded): [Acetyl(2-(4-imidazolyl))][Aib]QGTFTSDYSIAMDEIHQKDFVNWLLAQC (bridge 16-20) [triple agonist of SEQ ID NO: 85]
[out] criterion met
